- TEST_SYSTEM: T1, SARS-CoV-1-N protein (SARS-CoV-1, UniProt P59595 1-422)
- T1 construct: also called SARS-CoV N; SARS-CoV-N
- T1 sequence (P59595 whole entry): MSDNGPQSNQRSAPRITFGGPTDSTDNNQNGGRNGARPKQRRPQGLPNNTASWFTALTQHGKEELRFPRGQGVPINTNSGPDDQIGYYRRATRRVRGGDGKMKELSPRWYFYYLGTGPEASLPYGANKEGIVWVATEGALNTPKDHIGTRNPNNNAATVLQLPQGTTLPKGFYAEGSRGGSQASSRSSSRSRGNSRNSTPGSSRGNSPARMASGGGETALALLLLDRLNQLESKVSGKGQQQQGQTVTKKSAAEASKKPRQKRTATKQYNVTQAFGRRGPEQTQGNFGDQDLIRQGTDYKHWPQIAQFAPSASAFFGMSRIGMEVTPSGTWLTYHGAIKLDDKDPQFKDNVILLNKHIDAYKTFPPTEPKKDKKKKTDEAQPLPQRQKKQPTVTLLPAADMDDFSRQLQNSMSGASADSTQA
- RUN_DESCRIPTION: ELISA, IgG1 on recombinant N protein
Label y when EC50 < 4 ng/mL; otherwise n.

BINDER	DISCRETE_LABEL
antibody #36 (antibody, V domains shown, also called IgG1#36; D36) VH: EVQLVESGGGLVQPGGSLRLSCAASGFTINRYSIHWVRQAPGKGLEWVAGIWPFGGDTTYADSVKGRFTISADTSKNTAYLQMNSLRAEDTAVYYCARGATSHDYWGQGTLVTVSS VL: DIQMTQSPSSLSASVGDRVTITCRASQDVTTTVAWYQQKPGKAPKLLINKGSWLYSGVPSRFSGSGSGTDFTLTISSLQPEDFATYYCQQYNKWPLTFGQGTKVEIKR	y
antibody #21 (antibody, V domains shown, also called D21) VH: EVQLVESGGGLVQPGGSLRLSCAASGFTINNGSIHWVRQAPGKGLEWVAWIWPFGGYTYYADSVKGRFTISADTSKNTAYLQMNSLRAEDTAVYYCARGSYGYDYWGQGTLVTVSS VL: DIQMTQSPSSLSASVGDRVTITCRASQDVGSNVAWYQQKPGKAPKLLIFSAPFLYSGVPSRFSGSGSGTDFTLTISSLQPEDFATYYCQQFYDWPLTFGQGTKVEIKR	n
antibody #48 (antibody, V domains shown, also called C48) VH: EVQLVESGGGLVQPGGSLRLSCAASGFTISNFGIHWVRQAPGKGLEWVAGIWPYGGYTFYADSVKGRFTISADTSKNTAYLQMNSLRAEDTAVYYCARFDSYSYSGYMDYWGQGTLVTVSS VL: DIQMTQSPSSLSASVGDRVTITCSGSSSNIGDNNVYWYQQKPGKAPKLLIFGPAYLYSGVPSRFSGSGSGTDFTLTISSLQPEDFATYYCAAGYSDNNGITFGQGTKVEIKR	n
antibody #11 (antibody, V domains shown, also called D11; C11) VH: EVQLVESGGGLVQPGGSLRLSCAASGFTIQDRMIHWVRQAPGKGLEWVASILPFLGATWYADSVKGRFTISADTSKNTAYLQMNSLRAEDTAVYYCARSWFSPFDYWGQGTLVTVSS VL: DIQMTQSPSSLSASVGDRVTITCRASQDVGGSVAWYQQKPGKAPKLLISFPGGLYSGVPSRFSGSGSGTDFTLTISSLQPEDFATYYCQQYFSWPITFGQGTKVEIKR	n
antibody #33 (antibody, V domains shown, also called D33; C33) VH: EVQLVESGGGLVQPGGSLRLSCAASGFTINNGGIHWVRQAPGKGLEWVAGIWPFWGSTSYADSVKGRFTISADTSKNTAYLQMNSLRAEDTAVYYCARGSYGFDYWGQGTLVTVSS VL: DIQMTQSPSSLSASVGDRVTITCRASQDVYSSVAWYQQKPGKAPKLLIFGSSFLYSGVPSRFSGSGSGTDFTLTISSLQPEDFATYYCQQYYDWPITFGQGTKVEIKR	y
antibody #7 (antibody, V domains shown, also called C07) VH: EVQLVESGGGLVQPGGSLRLSCAASGFTIEDRWIHWVRQAPGKGLEWVASIWPMEGLTRYADSVKGRFTISADTSKNTAYLQMNSLRAEDTAVYYCARGYYGFDYWGQGTLVTVSS VL: DIQMTQSPSSLSASVGDRVTITCRASQDVEARVAWYQQKPGKAPKLLIFTSTRLYSGVPSRFSGSGSGTDFTLTISSLQPEDFATYYCQQIMPLPTTFGQGTKVEIKR	y
